Target: Bromodomain-containing protein 3 (Homo sapiens, UniProt Q15059)
Sequence (Q15059 whole entry, the tested form may be a part): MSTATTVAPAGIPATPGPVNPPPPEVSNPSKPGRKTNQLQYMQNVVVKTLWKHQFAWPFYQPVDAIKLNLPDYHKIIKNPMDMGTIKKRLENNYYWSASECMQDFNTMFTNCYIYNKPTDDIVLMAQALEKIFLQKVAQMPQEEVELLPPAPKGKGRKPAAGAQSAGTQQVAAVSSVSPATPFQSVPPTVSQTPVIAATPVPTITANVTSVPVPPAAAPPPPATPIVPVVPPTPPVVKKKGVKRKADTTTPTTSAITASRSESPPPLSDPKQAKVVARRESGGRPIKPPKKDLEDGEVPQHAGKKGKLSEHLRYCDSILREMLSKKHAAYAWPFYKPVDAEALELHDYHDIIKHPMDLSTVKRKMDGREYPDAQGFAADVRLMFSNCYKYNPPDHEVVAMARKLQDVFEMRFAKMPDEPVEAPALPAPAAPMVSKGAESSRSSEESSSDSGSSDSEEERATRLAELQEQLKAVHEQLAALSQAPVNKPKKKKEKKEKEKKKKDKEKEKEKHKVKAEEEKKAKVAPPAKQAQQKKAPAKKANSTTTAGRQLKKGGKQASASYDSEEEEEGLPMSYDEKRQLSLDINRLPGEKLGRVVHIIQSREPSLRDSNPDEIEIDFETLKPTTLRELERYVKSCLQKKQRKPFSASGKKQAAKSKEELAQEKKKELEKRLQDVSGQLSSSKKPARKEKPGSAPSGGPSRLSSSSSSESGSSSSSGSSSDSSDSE
Experiment: Binding affinity to recombinant BRD3-ET domain (unknown origin) expressed in Escherichia coli Rosetta (DE3) pLysS assessed as dissociation constant by 1H- NMR analysis
Please provide measured Kd for the entries that follow.
Give the value in µM but do not write µM after it.

What does the record list as Kd for Fc1ccc2[nH]c3c(c2c1)CCCC3NCC1CCNCC1 (stereo unspecified) ?
61

What does the record list as Kd for O=C(CC1CCCNC1)NC1CCCc2c1[nH]c1ccc(F)cc21 (stereo unspecified) ?
33

What does the record list as Kd for O=C(NC1CCCc2c1[nH]c1ccc(F)cc21)C1CCNC1 (stereo unspecified) ?
54

What does the record list as Kd for Fc1ccc2[nH]c3c(c2c1)CCCC3NCCC1CCCNC1 (stereo unspecified) ?
24

What does the record list as Kd for CC(C)C[C@H](N)CC(=O)NC1CCCc2c1[nH]c1ccc(F)cc21 (stereo partly specified) ?
39

What does the record list as Kd for Fc1ccc2[nH]c3c(c2c1)CCCC3NCC1CCNC1 (stereo unspecified) ?
93

Origin of measurements: ChEMBL document CHEMBL5338749
